Hello, the source for this data is patent US10052320B2, in case you need it.

Target: Ba/F3-FGFR3-transfected cells (Homo sapiens)
Sequence (P22607 whole entry, change not shown): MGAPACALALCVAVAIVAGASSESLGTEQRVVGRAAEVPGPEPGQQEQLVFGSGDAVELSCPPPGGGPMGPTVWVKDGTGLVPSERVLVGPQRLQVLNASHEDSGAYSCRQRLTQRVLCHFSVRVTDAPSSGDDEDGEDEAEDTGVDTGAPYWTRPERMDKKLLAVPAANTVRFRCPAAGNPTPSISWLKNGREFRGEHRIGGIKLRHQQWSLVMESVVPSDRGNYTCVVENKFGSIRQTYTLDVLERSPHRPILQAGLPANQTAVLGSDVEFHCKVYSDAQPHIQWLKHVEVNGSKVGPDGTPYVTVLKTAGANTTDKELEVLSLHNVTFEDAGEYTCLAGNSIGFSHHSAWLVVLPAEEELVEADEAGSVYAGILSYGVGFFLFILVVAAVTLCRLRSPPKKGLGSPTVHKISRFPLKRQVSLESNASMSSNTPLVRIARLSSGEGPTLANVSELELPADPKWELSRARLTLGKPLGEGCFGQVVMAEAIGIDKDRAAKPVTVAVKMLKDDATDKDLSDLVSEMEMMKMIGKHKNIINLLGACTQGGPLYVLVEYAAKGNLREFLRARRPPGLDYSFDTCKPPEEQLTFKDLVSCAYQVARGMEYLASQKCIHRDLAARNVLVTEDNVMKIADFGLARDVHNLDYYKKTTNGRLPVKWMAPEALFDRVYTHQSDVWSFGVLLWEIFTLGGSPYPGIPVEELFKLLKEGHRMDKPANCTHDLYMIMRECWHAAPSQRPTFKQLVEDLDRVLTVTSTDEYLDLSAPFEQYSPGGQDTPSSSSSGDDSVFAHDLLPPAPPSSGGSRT
Test: Ba/F3-FGFR3 (minus IL3) cellular proliferation assay, Alamar Blue
Type: cell-based
Conditions: minus IL3, 96 well
Property Name: BAF3-FGFR 3 (MIN IL3) 96 well pIC50

COc1cc(OC)cc(N(CC2CC2)c2ccc3ncc(-c4cn(CCO)nn4)nc3c2)c1	5.04
COc1cc(OC)cc(N(CC2CC2)c2ccc3ncc(C#Cc4ccncc4)nc3c2)c1	5.66
COc1cc(OC)cc(N(CC2CC2)c2ccc3ncc(-c4cccc(N5CCOCC5)c4)nc3c2)c1	<5
COc1cc(OC)cc(N(CC2CC2)c2ccc3ncc(Nc4nccs4)nc3c2)c1	<5
COc1cc(OC)cc(N(CC2CC2)c2ccc3ncc(-c4cn(CCN5CCOCC5)nn4)nc3c2)c1	5.59
COc1cc(OC)cc(N(CC2CC2)c2ccc3ncc(-n4ccc(C)n4)nc3c2)c1	<5
COc1cc(OC)cc(N(CC2CC2)c2ccc3ncc(-n4nccc4C)nc3c2)c1	<5
COc1cc(OC)cc(N(CC2CC2)c2ccc3ncc(C(=O)Nc4cncn4C)nc3c2)c1	<5

Let us examine a further case.
Prompt: Fill in the blank: the reported BAF3-FGFR 3 (MIN IL3) 96 well pIC50 of COc1cc(OC)cc(N(CC2CC2)c2ccc3ncc(-c4cnc5[nH]ccc5c4)nc3c2)c1 is ____.
Response: <5
